B1: RHOBTB3 (parent)
chain: VSHVFMLLFNVKSPTDIQDSSIIR

variants of: B1; assay: protein stability index of a GFP-peptide fusion (GPS, HEK-293T) (PSI 1-6); higher = more stable; settings: c terminus: a fixed tail appended;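 also: lentivirally expressed fusions sorted by FACS into six bins by GFP to DsRed ratio, PSI derived from sequencing read proportions per bin multiplied by bin number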
Heads up, the class ranges for protein stability index are low-valued: < 2; mid-valued: ≥ 2 and < 3; high-valued: ≥ 3

VSHDFMLLFNVKSPTDIQDSSIIR [V4D]	mid-valued

INPUT: Hi, small favor: classify VSQVFMLLFNVKSPTDIQDSSIIR [H3Q] by its protein stability index when you get a moment.
OUTPUT: mid-valued

INPUT: Sort VSHYFMLLFNVKSPTDIQDSSIIR [V4Y] into one of the categories.
OUTPUT: low-valued

INPUT: Tag the class for VSHVFMLLFNVKSPTDIQDSSIGR [I23G]
OUTPUT: mid-valued

INPUT: State the band of VSHVFMLLFLVKSPTDIQDSSIIR [N10L]
OUTPUT: high-valued

INPUT: Bin this entry: VSHVFMLLFNVKSCTDIQDSSIIR [P14C]
OUTPUT: high-valued

INPUT: In plain terms, what class is VSHVFMLLFNVKSPTDIQDSSIQR [I23Q] ?
OUTPUT: mid-valued

INPUT: Which category fits this record: VSHVFMLLFNVKSPTDIQDSSIIK [R24K]
OUTPUT: high-valued

INPUT: Field: class (protein stability index) — entry: VSHVFMLLFNVKSPTDIQISSIIR [D19I]
OUTPUT: high-valued

INPUT: Hi there! Could you help me figure out the category for VSHVFMLLFNVKCPTDIQDSSIIR [S13C] please?
OUTPUT: high-valued

INPUT: Hello team, could you let me know which band the following variant falls into: VSHVFGLLFNVKSPTDIQDSSIIR [M6G]
OUTPUT: mid-valued

INPUT: Class (by measured protein stability index) for VSHVFMLLFNVKSPTDIQDSSITR [I23T]
OUTPUT: mid-valued

INPUT: Form: Item = VSHVIMLLFNVKSPTDIQDSSIIR [F5I] ; Class = ?
OUTPUT: mid-valued

INPUT: Tag the class for VSHVFMLLFNVDSPTDIQDSSIIR [K12D]
OUTPUT: mid-valued

INPUT: Dear colleague, I would appreciate it if you could identify the bin for VSHVFMLLFNVKSPTDIQMSSIIR [D19M] and reply at your convenience.
OUTPUT: high-valued

INPUT: // return the class label for VSHVFMPLFNVKSPTDIQDSSIIR [L7P]
OUTPUT: mid-valued

INPUT: Hello team, could you let me know which band the following variant falls into: VSHVFRLLFNVKSPTDIQDSSIIR [M6R]
OUTPUT: low-valued

INPUT: Please report the category associated with VSHVFMVLFNVKSPTDIQDSSIIR [L7V] , nothing else.
OUTPUT: mid-valued
